The following compounds were reported with pIC50 values on F1F0-ATPase (Bos taurus, UniProt P13621) in different studies.
pIC50: −log10 of the molar value.

# Compound, pIC50
records = [
    ("O=C(/N=C(/Nc1ccc(Cl)c(F)c1)N[C@H]1CC[C@H](O)CC1)c1ccc(C(F)(F)F)cc1", "> 5.00"),
    ("CC(C)(C)N/C(=N/C(=O)c1ccc(F)c(F)c1)Nc1n[nH]c2cccc(F)c12", "> 5.30"),
    ("O=C(/N=C(\\Nc1cc(C(F)(F)F)n[nH]1)NC1CCCOC1)c1ccc(Cl)c(F)c1 (stereo not shown)", "> 5.00"),
    ("CCOCC(C)NC(=NC(=O)c1ccc(F)cc1)Nc1cc(-c2ccc(Cl)cc2)n[nH]1 (stereo not shown)", "> 5.00"),
    ("Cn1cc(C(=O)/N=C(\\Nc2cc(-c3ccc(O)c(F)c3)n[nH]2)Nc2ccc(F)cc2F)c(C(F)(F)F)n1", "> 5.30"),
    ("CC(C)(O)CN/C(=N/C(=O)c1ccc(Cl)cc1)Nc1n[nH]c2cc(F)ccc12", "> 5.30"),
    ("CC(C)(C)CN/C(=N/C(=O)c1ccc(Cl)cc1)Nc1cc(C(F)(F)F)n[nH]1", "> 5.00"),
    ("COCC(C)NC(=NC(=O)c1ccc(Cl)cc1)Nc1n[nH]c2cc(Cl)ccc12 (stereo not shown)", "> 5.30"),
    ("Cn1cc(C(=O)/N=C(/Nc2cccc(F)c2)Nc2cc(-c3ccc(O)c(F)c3)n[nH]2)c(C(F)(F)F)n1", "> 5.30"),
    ("Cc1ccc(-c2cc(N/C(=N\\C(=O)c3ccc(F)c(F)c3)NC(C)(C)C)[nH]n2)cc1", "> 5.00"),
    ("CC(C)(C)CN/C(=N/C(=O)c1ccc(Cl)cc1)Nc1cccc(NS(=O)(=O)CC(F)(F)F)n1", "> 5.00"),
    ("O=C(N=C(NCc1ccc(F)cc1Cl)Nc1cc(-c2ccc(Cl)cc2)n[nH]1)c1ccc(Cl)c(F)c1", "> 5.00"),
    ("Cn1nc(C(C)(C)C)cc1C(=O)/N=C(\\Nc1cc(-c2ccc(F)cc2)n[nH]1)NC(C)(C)C", "> 5.30"),
    ("CC(C)(C)N/C(=N/C(=O)c1ccc(C#N)cc1)Nc1cc(C(F)(F)F)[nH]n1", "> 5.00"),
    ("O=C(/N=C(/NCc1ccc(F)c(F)c1)N[C@H]1CC[C@H](O)CC1)c1ccc(F)c(F)c1", "< 5.00"),
    ("CCOC(=O)N[C@H]1CC[C@H](N/C(=N\\C(=O)c2ccc(F)c(F)c2)Nc2ccccc2C2CC2)CC1", "> 5.00"),
    ("COc1cccc(C(=O)/N=C(/Nc2cc(F)cc(Cl)c2)Nc2cc(-c3ccc(Cl)cc3)[nH]n2)c1", "> 5.00"),
    ("O=C(/N=C(\\Nc1cc(C(F)(F)F)n[nH]1)NC1CCOCC1)c1ccc(F)c(F)c1", "> 5.00"),
    ("Cn1cc(C(=O)N=C(Nc2cc(-c3ccc(O)c(F)c3)n[nH]2)Nc2ccccc2Cl)c(C(F)(F)F)n1", "> 5.30"),
    ("O=C(/N=C(/NCc1ccc(Cl)cc1F)N[C@H]1CC[C@H](Nc2ncccn2)CC1)c1ccc(F)c(F)c1", "> 5.00"),
    ("CCOC(=O)N[C@H]1CC[C@H](N/C(=N\\C(=O)c2ccc(F)c(F)c2)NCc2ccc(F)cc2F)CC1", "> 5.00"),
    ("CC(C)N/C(=N/C(=O)c1cc(C(C)(C)C)nn1C)Nc1cc(-c2ccc(Cl)cc2)n[nH]1", "4.80 to 5.30"),
    ("O=C(/N=C(\\Nc1cccc(O)n1)Nc1ccc(F)cc1C1CC1)c1ccc(C(F)(F)F)cc1", "> 5.00"),
    ("Cc1cc(C(=O)/N=C(\\Nc2cc(-c3cc(F)cc(F)c3)[nH]n2)NC(C)(C)C)c(C(F)(F)F)o1", "4.80 to 5.30"),
    ("COC[C@H](C)N/C(=N/C(=O)c1cc(C(C)(C)C)nn1C)Nc1cc(-c2ccc(F)cc2)n[nH]1", "> 5.30"),
]
